The measured values listed here are drawn from paper doi:10.1101/2025.06.05.658000.

target: HLA-DR (DRA1*01:01 / DRB1*11:04), soluble knob-into-hole Fc heterodimer (human); experiment: ELISA
PROPERTY LABEL: pKi
Remember, pKi is on a log scale: it is -log10 of the molar concentration.

INPUT: Complete the entry with pKi for KPVSKMRMATPLLMQALPM [human CLIP peptide, unlabelled competitor]
OUTPUT: 8.53
